Reference for the values: PubChem BioAssay (NCATS)

- test details: Quantitative High-Throughput drug screen in 47 multiple myeloma cell lines against the NCATS MIPE library collection: L363_DSMZ cell viability assay (AID 1918984); further: nearly all actives have a fitted effect of over 40% in size; further: potency means the concentration at half of the fitted maximal effect
- condition notes: L363 myeloma viability, CellTiter-Glo ATP luminescence, 48 h; series mostly up to 45.8 µM
Records with an inconclusive call do not appear. The source made the active and inactive calls. The call rests on the fitted dose curve; in most records, active means well fitted cell-killing curve with a large enough effect; inconclusive means small, poorly fitted or top-dose-only effect, or effect the other way; inactive means no such curve, though single readings can be large or run the other way.
quantity name: Potency

item_smiles=O=C(c1ccc(Nc2nccc(-c3cc4ccccc4s3)n2)cc1)N1CCC(N2CCCC2)CC1 experimental_result="1480 nM (active)"
item_smiles=CCC[C@H](NC(=O)C(C#N)=Cc1cccc(Br)n1)c1ccccc1 experimental_result="7430 nM (active)"
item_smiles=Cc1cc(Nc2ncnc3ccc(-c4ccc(CNCCS(C)(=O)=O)o4)cc23)ccc1Oc1ccn2ncnc2c1 experimental_result="372 nM (active)"
item_smiles=CCN1CCN(Cc2ccc(-c3cc4c(N[C@H](C)c5ccccc5)ncnc4[nH]3)cc2)CC1 experimental_result="23.5 nM (active)"
item_smiles=O=C(Nc1ncc(-c2cc(C(F)F)nn2-c2c(Cl)cccc2Cl)s1)C1CC1 experimental_result="235 nM (active)"
item_smiles=CC=C1NC(=O)[C@H]2CSSCCC=C[C@H](CC(=O)N[C@H](C(C)C)C(=O)N2)OC(=O)[C@H](C(C)C)NC1=O experimental_result="6.6 nM (active)"
item_smiles=O=C(O)Cn1nnc(-c2cc(N3CCC(Oc4cc(F)ccc4Br)CC3)no2)n1 experimental_result=inactive
item_smiles=NC(=O)c1c(OCc2c(F)cc(Br)cc2F)nsc1NC(=O)NCCCCN1CCCC1 experimental_result=inactive
item_smiles=Cc1ccc(NC(=O)C2(c3ccc4c(c3)OC(F)(F)O4)CC2)nc1-c1cccc(C(=O)O)c1 experimental_result="29.6 nM (active)"

----------
- test details: Quantitative High-Throughput drug screen in 47 multiple myeloma cell lines against the NCATS MIPE library collection: PE2_PLB cell viability assay (AID 1919869); further: nearly all actives have a fitted effect of over 35% in size
- condition notes: PE2_PLB myeloma cells viability, ATP luminescence, 48 h; series mostly up to 45.8 µM
Results filed as inconclusive are left out. Activity calls are given as the source filed them. The call rests on the fitted dose curve; in most records, active means well fitted cell-killing curve with a large enough effect; inconclusive means small, poorly fitted or top-dose-only effect, or effect the other way; inactive means no such curve, though single readings can be large or run the other way.
Outcomes: active, inactive

item_smiles=O=C(c1ccc(Nc2nccc(-c3cc4ccccc4s3)n2)cc1)N1CCC(N2CCCC2)CC1 label_class=active
item_smiles=Fc1cc(-c2cccc3ncc(-c4cnn(C5CCNCC5)c4)nc23)cc(F)c1CN1CCOCC1 label_class=active
item_smiles=COc1ccc(OC)c(-c2nnc3ccc(-c4ccc(OC)c(O[C@@H]5CCOC5)c4)nn23)c1 label_class=active
item_smiles=Cc1cnc(-c2cnc(NCCNc3ccc(C#N)cn3)nc2-c2ccc(Cl)cc2Cl)[nH]1 label_class=active
item_smiles=Cc1ccc(CN2CCNCC2)cc1NC(=O)CNc1ccc(F)c(F)c1 label_class=inactive
item_smiles=Cc1nc2ccc(CN(C)c3ccc(C(=O)N[C@@H](CCC(=O)O)C(=O)O)s3)cc2c(=O)[nH]1 label_class=inactive
item_smiles=CC(=O)OCCN1C(=O)c2c(C)nc3ccc(S(=O)(=O)N4CCOCC4)cc3c2C1=O label_class=inactive
item_smiles=O=c1[nH]nc(Sc2ncc([N+](=O)[O-])s2)n1-c1ccc2c(c1)OCCO2 label_class=active
item_smiles=CCc1c2c(nc3ccc(O)cc13)-c1cc3c(c(=O)n1C2)COC(=O)[C@]3(O)CC label_class=active
item_smiles=COc1cc2c(Oc3ccc(NC(=O)C4(C(=O)Nc5ccc(F)cc5)CC4)cc3F)ccnc2cc1OCCCN1CCOCC1 label_class=active
item_smiles=CC(C)C[C@H](NC(=O)CNC(=O)c1cc(Cl)ccc1Cl)B(O)O label_class=active

----------
- test details: qHTS of pediatric cancer cell lines to identify multiple opportunities for drug repurposing: Primary screen for Saos-2 cells (AID 1347097); further: nearly all actives have a fitted effect of over 40% in size
- condition notes: Saos-2 viability, CellTiter-Glo ATP luminescence, 48 h; series mostly up to 46 µM
Records with an inconclusive call do not appear. Activity calls are given as the source filed them. Calls come from the whole dose curve; as a rule, active = well fitted cell-killing curve with a large enough effect; inconclusive = small, poorly fitted or top-dose-only effect; inactive = no such curve, though single readings can be large or run the other way.
Possible outcomes: t for active, f for inactive

molecule=CC(C)c1cnn2c(NCc3ccccc3)cc(N[C@@H](CO)[C@H](O)CO)nc12 label_class=t
molecule=OCc1ccc(-c2ccc(-c3ccc(CO)s3)o2)s1 label_class=f
molecule="CC(O)C1C(=O)N2C(C(=O)O)=C(SC3CNC(C(=O)N(C)C)C3)C(C)C12 (configuration not stated)" label_class=f
molecule=CCC1=C[C@@H]2CN(C1)Cc1c([nH]c3ccccc13)[C@@](C(=O)OC)(c1cc3c(cc1OC)N(C)[C@@H]1[C@@](O)(C(=O)OC)[C@H](OC(C)=O)[C@]4(CC)C=CCN5CC[C@]31[C@@H]54)C2 label_class=t
molecule=CCCCCCCCCC(=O)N[C@@H](Cc1c[nH]c2ccccc12)C(=O)N[C@H](CC(N)=O)C(=O)N[C@@H](CC(=O)O)C(=O)N[C@@H]1C(=O)NCC(=O)N[C@@H](CCCN)C(=O)N[C@@H](CC(=O)O)C(=O)N[C@H](C)C(=O)N[C@@H](CC(=O)O)C(=O)NCC(=O)N[C@H](CO)C(=O)N[C@@H]([C@@H](C)CC(=O)O)C(=O)N[C@@H](CC(=O)c2ccccc2N)C(=O)O[C@@H]1C label_class=f
molecule="CC[C@@H]1C(=O)N(C)c2cnc(Nc3ccc(C(=O)NC4CCC(N5CCN(CC6CC6)CC5)CC4)cc3OC)nc2N1C(C)C (some centres not stated)" label_class=t
molecule=CC(=O)Nc1nc(C)c(-c2ccc(Cl)c(S(=O)(=O)NCCO)c2)s1 label_class=t

----------
- test details: P-glycoprotein substrates identified in KB-3-1 adenocarcinoma cell line, qHTS therapeutic library screen (AID 1346986); further: nearly all actives have a fitted effect of over 60% in size
- condition notes: KB-3-1 parental cells viability, CellTiter-Glo, 72 h; series mostly up to 44.5 µM
- Experimental: The ATP-binding cassette transporters P-glycoprotein (P-gp) is known to limit brain penetration of many chemotherapy drugs. […] All cell lines were plated into 1536-well plates at 500 cells/well in 5 uL media. […] CellTiter-Glo reagent (Promega) was dispensed into the wells, incubated for 5 min and luminescence was read on a ViewLux instrument (Perkin-Elmer). […]
Records with an inconclusive call do not appear. Active and inactive are the calls of the source. The call rests on the fitted dose curve; in most records, active means well fitted inhibition curve with a large enough effect; inconclusive means small, poorly fitted or top-dose-only effect; inactive means no such curve, though single readings can be large or run the other way.
Outcomes: TRUE for active, FALSE for inactive

molecule=O=C(O)CCCc1c[nH]c2ccccc12 label_class=FALSE
molecule=C=CC(=O)Nc1cc2c(Nc3ccc(F)c(Cl)c3)ncnc2cc1OCCCN1CCOCC1 label_class=FALSE
molecule=O=C(Nc1cn[nH]c1-c1nc2ccc(CN3CCOCC3)cc2[nH]1)NC1CC1 label_class=TRUE
molecule=COc1cc2c(Oc3ccc4[nH]c(C)cc4c3F)ncnc2cc1OCCCN1CCCC1 label_class=TRUE
molecule=CCNC(=O)Nc1ccc2ncc(Nc3ccc(C)cc3)nc2n1 label_class=FALSE
molecule="COc1ccc(-c2cc3c(C)nc(N)nc3n(C3CCC(OCCO)CC3)c2=O)cn1 (configuration not stated)" label_class=TRUE
molecule=CCCCCCCCCC(=O)N[C@@H](Cc1c[nH]c2ccccc12)C(=O)N[C@H](CC(N)=O)C(=O)N[C@@H](CC(=O)O)C(=O)N[C@@H]1C(=O)NCC(=O)N[C@@H](CCCN)C(=O)N[C@@H](CC(=O)O)C(=O)N[C@H](C)C(=O)N[C@@H](CC(=O)O)C(=O)NCC(=O)N[C@H](CO)C(=O)N[C@@H]([C@@H](C)CC(=O)O)C(=O)N[C@@H](CC(=O)c2ccccc2N)C(=O)O[C@@H]1C label_class=FALSE
molecule=Cc1nc2cnc3ccc(C#Cc4cccnc4)cc3c2n1-c1ccc(C(C)(C)C#N)cc1 label_class=FALSE
molecule=C1Cc2[nH]nc(-c3nn[nH]n3)c2C1 label_class=FALSE
molecule=O=C(NC1CCNCC1)c1[nH]ncc1NC(=O)c1c(Cl)cccc1Cl label_class=TRUE
molecule=Cc1cc(Nc2cc(N3CCN(C)CC3)nc(Sc3ccc(NC(=O)C4CC4)cc3)n2)n[nH]1 label_class=TRUE
molecule=CN(c1ncccc1CNc1nc(Nc2ccc3c(c2)CC(=O)N3)ncc1C(F)(F)F)S(C)(=O)=O label_class=TRUE
molecule=N#Cc1c(O)c2c(-c3ccc(-c4ccccc4O)cc3)csc2[nH]c1=O label_class=FALSE
molecule=CN1CCC(CNc2ccc3ncc(-c4cccc(OC(F)(F)F)c4)n3n2)CC1 label_class=TRUE
molecule=CNc1nccc(-c2cccnc2Oc2cc(C(=O)Nc3cccc(C(F)(F)F)c3)ccc2C)n1 label_class=FALSE
molecule=C[C@]1(CO)CN(c2cc(C(=O)Nc3ccc4c(c3)-c3c(c(C(N)=O)nn3-c3ccc(F)cc3)CC4)c(Cl)cn2)C[C@@]1(C)CO label_class=TRUE
molecule=C[C@@]12O[C@@H](C[C@]1(O)CO)n1c3ccccc3c3c4c(c5c6ccccc6n2c5c31)CNC4=O label_class=TRUE

----------
- test details: P-glycoprotein substrates identified in KB-8-5-11 adenocarcinoma cell line, qHTS therapeutic library screen (AID 1346987); further: nearly all actives have a fitted effect of over 65% in size
- condition notes: KB-8-5-11 (P-gp overexpressing) viability, CellTiter-Glo, 72 h; series mostly up to 44.5 µM
Records with an inconclusive call do not appear. Active and inactive are the calls of the source. Calls come from the whole dose curve; as a rule, active = well fitted inhibition curve with a large enough effect; inconclusive = small, poorly fitted or top-dose-only effect; inactive = flat fitted curve, though single readings scatter.
Outcomes: 1.0 = active, 0.0 = inactive

molecule=O=C(NC1CCNCC1)c1[nH]ncc1NC(=O)c1c(Cl)cccc1Cl label_class=0.0
molecule=Cn1cc(-c2ccncc2)c(-c2ccc(OCc3ccc4ccccc4n3)cc2)n1 label_class=1.0
molecule=Cc1cc(Nc2ncnc3ccc(-c4ccc(CNCCS(C)(=O)=O)o4)cc23)ccc1Oc1ccn2ncnc2c1 label_class=0.0
molecule=Cc1cc(Nc2cc(N3CCN(C)CC3)nc(C=Cc3ccccc3)n2)n[nH]1 label_class=1.0
molecule=O=c1c2ccccc2nc2n1CCc1c-2[nH]c2ccccc12 label_class=0.0
molecule=Nc1nc(NCCNc2ncc(-n3ccnc3)c(-c3ccc(Cl)cc3Cl)n2)ccc1[N+](=O)[O-] label_class=0.0
molecule=CC=CC1=C(C(=O)O)N2C(=O)[C@H](NC(=O)[C@H](N)c3ccc(O)cc3)[C@@H]2SC1 label_class=0.0
molecule=CCc1c2c(nc3ccc(O)cc13)-c1cc3c(c(=O)n1C2)COC(=O)[C@]3(O)CC label_class=1.0
molecule=Cn1cncc1[C@@](N)(c1ccc(Cl)cc1)c1ccc2c(c1)c(-c1cccc(Cl)c1)cc(=O)n2C label_class=1.0
molecule=CC(C)(C)c1cc(NC(=O)Nc2ccc(-c3cn4c(n3)sc3cc(OCCN5CCOCC5)ccc34)cc2)no1 label_class=0.0
molecule=COc1cc2ncn(-c3cc(OCc4ccccc4C(F)(F)F)c(C(N)=O)s3)c2cc1OC label_class=1.0
molecule=Cc1cn2cc(C(=O)N(C)CCO)cc(N[C@@H]3CCOc4cccc(C)c43)c2n1 label_class=0.0
molecule=CN1CC[C@@H](c2c(O)cc(O)c3c(=O)cc(-c4ccccc4Cl)oc23)[C@@H](O)C1 label_class=1.0
molecule=Clc1cccc(-c2nnnn2Cc2cccnc2)c1Cl label_class=0.0
molecule="C=C1C(=CC=C2CCCC3(C)[C@@H]([C@H](C)C=CC=CC(O)(CC)CC)CC[C@@H]23)C[C@@H](O)C[C@@H]1O (some centres not stated)" label_class=0.0
molecule=CC(C)c1cc(-c2n[nH]c(=O)n2-c2ccc3c(ccn3C)c2)c(O)cc1O label_class=1.0
molecule=Nc1ccc(C(=O)c2cc3c(ccc4ccccc43)[nH]2)cc1 label_class=1.0
molecule=Clc1ccc2ncc(-c3cccc(NC4CNC4)n3)n2c1 label_class=0.0
molecule=CC1(C)OC2=C(C(=O)c3ccccc3C2=O)[C@H](NCc2ccccc2)[C@H]1O label_class=1.0
molecule=O=C(Nc1cn[nH]c1-c1nc2ccc(CN3CCOCC3)cc2[nH]1)NC1CC1 label_class=0.0
molecule=O=C(NCCCNc1nc(Nc2cccc(NC(=O)N3CCCC3)c2)ncc1I)c1cccs1 label_class=1.0
molecule=COc1ccc(C=Cc2cc(OC)c(OC)c(OC)c2)cc1O label_class=1.0
